All values here come from patent US20250250357A1.

Target: T1, human MSLN-R3-his protein (human, UniProt Q13421 487-598)
T1 construct: also called human MSLN-R3 protein; hMSLN-R3-his; not shown: His tag
T1 sequence (Q13421 495-606): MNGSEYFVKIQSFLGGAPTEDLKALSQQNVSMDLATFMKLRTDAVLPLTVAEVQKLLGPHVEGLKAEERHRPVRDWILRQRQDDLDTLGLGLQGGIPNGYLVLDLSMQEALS
Assay: ELISA, coated antigen; antibody 1 nM
property: OD450 (OD450)
One number for each entry, in OD450.

Consider the following illustrative entries.
# binder, OD450, OD450
records = [
    ("S009-F3.38.10 (antibody, human IgG1, kappa, V domains shown, Human-murine chimeric antibody, human IgG1/kappa constant regions) VH: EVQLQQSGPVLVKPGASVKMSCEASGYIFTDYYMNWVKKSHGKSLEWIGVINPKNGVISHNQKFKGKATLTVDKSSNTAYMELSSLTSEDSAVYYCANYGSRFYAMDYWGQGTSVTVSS VL: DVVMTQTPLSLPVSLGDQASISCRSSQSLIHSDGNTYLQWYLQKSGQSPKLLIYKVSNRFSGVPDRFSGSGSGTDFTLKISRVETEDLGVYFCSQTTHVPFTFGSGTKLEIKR", 1.71),
    ("S009-F3.80.22 (antibody, human IgG1, kappa, V domains shown, Human-murine chimeric antibody, human IgG1/kappa constant regions) VH: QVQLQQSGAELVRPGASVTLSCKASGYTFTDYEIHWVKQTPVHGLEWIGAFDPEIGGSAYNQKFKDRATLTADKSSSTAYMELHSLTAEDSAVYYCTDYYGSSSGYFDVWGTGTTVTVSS VL: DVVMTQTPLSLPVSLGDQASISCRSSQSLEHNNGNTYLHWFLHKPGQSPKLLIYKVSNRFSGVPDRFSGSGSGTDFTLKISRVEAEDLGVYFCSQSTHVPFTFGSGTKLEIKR", 1.91),
]

Now, please, on to the next binder.
Q: Return the recorded OD450 value; entry: S009-F3.7.3 (antibody, human IgG1, kappa, V domains shown, Human-murine chimeric antibody: murine VH/VL on human IgG1 heavy chain constant region and human kappa constant region) VH: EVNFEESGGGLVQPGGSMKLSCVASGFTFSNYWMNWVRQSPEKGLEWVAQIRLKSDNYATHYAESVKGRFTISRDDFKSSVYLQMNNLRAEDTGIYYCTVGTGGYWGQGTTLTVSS VL: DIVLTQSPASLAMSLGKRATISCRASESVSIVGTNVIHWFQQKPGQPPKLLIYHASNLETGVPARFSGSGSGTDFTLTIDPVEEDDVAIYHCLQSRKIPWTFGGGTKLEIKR
A: 1.63
